# TESTED_ON: mouse SGLT1 (Mus musculus)
# Sequence (Q8C3K6 whole entry): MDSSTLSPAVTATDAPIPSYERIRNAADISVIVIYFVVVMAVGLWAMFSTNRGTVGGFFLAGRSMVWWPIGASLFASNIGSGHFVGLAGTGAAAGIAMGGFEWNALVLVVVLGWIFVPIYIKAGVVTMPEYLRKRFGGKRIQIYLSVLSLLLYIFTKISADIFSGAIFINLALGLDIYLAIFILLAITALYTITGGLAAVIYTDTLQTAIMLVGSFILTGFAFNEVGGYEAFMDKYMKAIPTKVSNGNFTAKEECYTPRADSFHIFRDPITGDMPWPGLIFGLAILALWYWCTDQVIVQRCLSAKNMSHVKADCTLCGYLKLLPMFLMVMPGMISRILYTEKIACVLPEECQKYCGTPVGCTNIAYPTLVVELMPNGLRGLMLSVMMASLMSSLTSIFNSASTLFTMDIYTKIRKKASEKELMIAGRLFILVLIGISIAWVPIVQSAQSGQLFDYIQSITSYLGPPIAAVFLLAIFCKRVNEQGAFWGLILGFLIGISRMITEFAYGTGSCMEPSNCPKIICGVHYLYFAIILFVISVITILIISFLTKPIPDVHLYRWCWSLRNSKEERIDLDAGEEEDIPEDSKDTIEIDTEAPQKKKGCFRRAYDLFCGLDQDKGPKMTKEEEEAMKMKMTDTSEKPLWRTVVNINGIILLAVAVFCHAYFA
# ASSAY_PROCEDURE: Sodium-dependent 14C-AMG uptake in CHO-K1 cells expressing mouse SGLT1
# MEASUREMENT_SETUP: n = 9
EXPERIMENTAL_ENDPOINT: pIC50
In textbook form, pIC50 equals minus log to base ten of the concentration in mol/L.

Find the recorded pIC50 belonging to Cc1cc(/C=C/CCN2CCCC3(CCNCC3)C2)ccc1Cc1c(O[C@@H]2O[C@H](CO)[C@@H](O)[C@H](O)[C@H]2O)n[nH]c1C(C)C [Example 1 (free base)] and report it.
8.00

---

# TESTED_ON: UniProt P31639
# Sequence (P31639 whole entry): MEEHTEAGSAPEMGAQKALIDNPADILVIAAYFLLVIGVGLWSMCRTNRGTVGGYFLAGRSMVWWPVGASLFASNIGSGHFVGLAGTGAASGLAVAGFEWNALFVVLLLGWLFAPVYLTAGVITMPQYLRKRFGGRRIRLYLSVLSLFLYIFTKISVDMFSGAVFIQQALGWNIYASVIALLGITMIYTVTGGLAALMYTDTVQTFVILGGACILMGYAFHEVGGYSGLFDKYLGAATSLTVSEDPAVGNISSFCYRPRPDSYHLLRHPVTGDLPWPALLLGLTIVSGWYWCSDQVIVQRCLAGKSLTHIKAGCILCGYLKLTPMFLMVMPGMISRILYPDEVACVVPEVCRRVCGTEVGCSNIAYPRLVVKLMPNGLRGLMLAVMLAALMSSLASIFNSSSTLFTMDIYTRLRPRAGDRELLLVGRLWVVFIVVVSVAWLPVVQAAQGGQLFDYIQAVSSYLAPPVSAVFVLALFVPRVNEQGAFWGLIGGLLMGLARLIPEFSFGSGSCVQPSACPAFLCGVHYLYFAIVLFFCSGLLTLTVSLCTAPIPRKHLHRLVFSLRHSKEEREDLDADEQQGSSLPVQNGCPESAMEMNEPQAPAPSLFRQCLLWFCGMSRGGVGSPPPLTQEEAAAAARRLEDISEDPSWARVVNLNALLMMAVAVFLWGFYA
# ASSAY_PROCEDURE: Sodium-dependent 14C-AMG uptake in CHO-K1 cells expressing human SGLT2
# MEASUREMENT_SETUP: n = 10
EXPERIMENTAL_ENDPOINT: pIC50
In textbook form, pIC50 equals minus log to base ten of the concentration in mol/L.

Find the recorded pIC50 belonging to Cc1cc(/C=C/CCN2CCCC3(CCNCC3)C2)ccc1Cc1c(O[C@@H]2O[C@H](CO)[C@@H](O)[C@H](O)[C@H]2O)n[nH]c1C(C)C [Example 1 (free base)] and report it.
5.21

---

# TESTED_ON: human SGLT1 (Homo sapiens, UniProt P13866)
# Sequence (P13866 whole entry): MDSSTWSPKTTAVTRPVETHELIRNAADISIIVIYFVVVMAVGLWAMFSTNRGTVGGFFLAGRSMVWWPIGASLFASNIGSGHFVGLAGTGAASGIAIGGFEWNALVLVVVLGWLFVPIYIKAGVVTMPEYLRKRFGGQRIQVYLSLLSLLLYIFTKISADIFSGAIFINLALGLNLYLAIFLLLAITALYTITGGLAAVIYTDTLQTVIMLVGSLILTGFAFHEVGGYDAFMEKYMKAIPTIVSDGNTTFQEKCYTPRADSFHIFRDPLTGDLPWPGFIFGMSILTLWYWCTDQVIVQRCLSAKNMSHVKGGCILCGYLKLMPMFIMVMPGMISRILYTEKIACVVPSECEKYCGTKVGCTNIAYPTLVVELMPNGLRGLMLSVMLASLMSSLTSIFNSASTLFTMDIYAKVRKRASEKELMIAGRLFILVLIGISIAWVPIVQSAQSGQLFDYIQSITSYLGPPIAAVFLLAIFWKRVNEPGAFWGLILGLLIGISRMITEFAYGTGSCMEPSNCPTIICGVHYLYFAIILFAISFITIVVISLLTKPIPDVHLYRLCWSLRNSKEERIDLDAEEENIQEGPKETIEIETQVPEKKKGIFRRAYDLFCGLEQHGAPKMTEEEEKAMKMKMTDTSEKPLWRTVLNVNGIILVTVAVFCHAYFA
# ASSAY_PROCEDURE: Sodium-dependent 14C-AMG uptake in CHO-K1 cells expressing human SGLT1
# Format: cell-based
# MEASUREMENT_SETUP: 14C-AMG uptake, CHO-K1 cells, n = 10
EXPERIMENTAL_ENDPOINT: IC50 (µM)
Kindly answer with a numeric value in µM, unit omitted.

Find the recorded IC50 belonging to Cc1cc(/C=C/CCN2CCCC3(CCNCC3)C2)ccc1Cc1c(O[C@@H]2O[C@H](CO)[C@@H](O)[C@H](O)[C@H]2O)n[nH]c1C(C)C [Example 1 (free base)] and report it.
0.026
